So I've got a bunch of compounds here, and I need their IC50 values.
- assay method text: Inhibition of NOX in fMLP-induced PMN cells assessed as ROS production
Answer format: numeric, µM implied, no suffix.

Sample COc1cc(C)c(OC)c2c1OCO2 ; IC50 observed: 19.9

For C=C(CC[C@@H](C)[C@H]1CC[C@H]2C3=C(C(=O)C[C@]12C)[C@@]1(C)CCC(=O)[C@@H](C)[C@@H]1CC3=O)C(C)C(=O)O (stereo not given in full) the compound record lists IC50 as 22.1

For record C=C(CC[C@@H](C)[C@H]1CC[C@H]2C3=C(C(=O)C[C@]12C)[C@@]1(C)CC[C@@H](O)[C@@H](C)[C@@H]1C[C@@H]3O)C(C)C(=O)O (stereo not given in full) the listed IC50 is 32.1

Value of measured IC50 for the entry C=C(CC[C@@H](C)[C@H]1CC[C@H]2C3=C(C[C@H](O)[C@]12C)[C@@]1(C)CC[C@@H](O)[C@@H](C)[C@@H]1CC3=O)C(C)C(=O)OC (stereo not given in full) [METHYL ANTCINATE H] : 18.1

Recorded IC50 (compound C=C(CC[C@@H](C)[C@H]1CC[C@@H]2C3=C(C(=O)C[C@@]21C)[C@@]1(C)CCC(=O)[C@@H](C)[C@@H]1CC3)C(C)C(=O)OC (stereo not given in full) ): 15.8

###

- System: Daoy
- assay method text: Cytotoxicity against human DaOY cells after 3 days by MTT assay
- Format: functional
- run conditions: 72 h, read-out: ED50 (the source's name)
measure: EC50

EC50 of C=C(CC[C@@H](C)[C@H]1CC[C@H]2C3=C(C(=O)C[C@]12C)[C@@]1(C)CC[C@@H](O)[C@@H](C)[C@@H]1CC3=O)C(C)C(=O)OC (some centres not stated) , assay on Daoy, is 5.2 µg/mL

Known value: Daoy EC50 of the compound C=C(CC[C@@H](C)[C@H]1CC[C@H]2C3=C(C(=O)C[C@]12C)[C@@]1(C)CCC(=O)[C@@H](C)[C@@H]1CC3=O)C(C)C(=O)OC (some centres not stated) equals > 20 µg/mL

C=C(CC[C@@H](C)[C@H]1CC[C@H]2C3=C(C(=O)[C@H](O)[C@]12C)[C@@]1(C)CC[C@@H](O)[C@@H](C)[C@@H]1CC3=O)C(C)C(=O)O (some centres not stated) on Daoy gives EC50 = > 20 µg/mL

Value (EC50, Daoy) for record c1cc2c(cc1[C@H]1OC[C@H]3[C@@H]1CO[C@@H]3c1ccc3c(c1)OCO3)OCO2 = > 20 µg/mL

Entry C=C(CC[C@@H](C)[C@H]1CC[C@H]2C3=C(C(=O)C[C@]12C)[C@@]1(C)CC[C@@H](O)[C@@H](C)[C@@H]1CC3=O)C(C)C(=O)O (some centres not stated) , Daoy data, EC50 value: > 20 µg/mL

The measured EC50 that C=C(C)C#Cc1c(OC)cc(OC)c(OC)c1C showed for Daoy is 5.9 µg/mL

Measured EC50 (Daoy), entry C=C(CC[C@@H](C)[C@H]1CC[C@H]2C3=C(C(=O)C[C@]12C)[C@@]1(C)CCC(=O)[C@@H](C)[C@@H]1CC3)C(C)C(=O)O (some centres not stated) : 13.2 µg/mL

Simply: C=C(CC[C@@H](C)[C@H]1CC[C@@H]2C3=C(C(=O)C[C@@]21C)[C@@]1(C)CCC(=O)[C@@H](C)[C@@H]1CC3)C(C)C(=O)OC (some centres not stated) , Daoy, EC50 = > 20 µg/mL

Record COc1c(C)c(-c2c(C)c(OC)c3c(c2OC)OCO3)c(OC)c2c1OCO2 has Daoy EC50 equal to > 20 µg/mL

Lab note: compound C=C(CC[C@@H](C)[C@H]1CC[C@H]2C3=C(C(=O)C[C@]12C)[C@@]1(C)CCC(=O)[C@@H](C)[C@@H]1CC3)C(C)C(=O)OC (some centres not stated) [METHYLANTCINATE A] tested on Daoy; recorded EC50 was > 20 µg/mL

Assay Daoy, sample OC1O[C@@H](c2ccc3c(c2)OCO3)[C@@H]2CO[C@@H](c3ccc4c(c3)OCO4)[C@H]12 (some centres not stated) [4-HYDROXYSESAMIN] , EC50 read: > 20 µg/mL

Record for C=C(CC[C@@H](C)[C@H]1CC[C@H]2C3=C(C(=O)C[C@]12C)[C@@]1(C)CCC(=O)[C@@H](C)[C@@H]1CC3=O)C(C)C(=O)O (some centres not stated) under target or system Daoy: EC50 reported as > 20 µg/mL
